Please respond with reported pEC50 for every item in the list.
# target.or.system: sGC α1/β1 heterodimer (Homo sapiens, UniProt Q02108+Q02153)
# Sequence (Q02108 1-690): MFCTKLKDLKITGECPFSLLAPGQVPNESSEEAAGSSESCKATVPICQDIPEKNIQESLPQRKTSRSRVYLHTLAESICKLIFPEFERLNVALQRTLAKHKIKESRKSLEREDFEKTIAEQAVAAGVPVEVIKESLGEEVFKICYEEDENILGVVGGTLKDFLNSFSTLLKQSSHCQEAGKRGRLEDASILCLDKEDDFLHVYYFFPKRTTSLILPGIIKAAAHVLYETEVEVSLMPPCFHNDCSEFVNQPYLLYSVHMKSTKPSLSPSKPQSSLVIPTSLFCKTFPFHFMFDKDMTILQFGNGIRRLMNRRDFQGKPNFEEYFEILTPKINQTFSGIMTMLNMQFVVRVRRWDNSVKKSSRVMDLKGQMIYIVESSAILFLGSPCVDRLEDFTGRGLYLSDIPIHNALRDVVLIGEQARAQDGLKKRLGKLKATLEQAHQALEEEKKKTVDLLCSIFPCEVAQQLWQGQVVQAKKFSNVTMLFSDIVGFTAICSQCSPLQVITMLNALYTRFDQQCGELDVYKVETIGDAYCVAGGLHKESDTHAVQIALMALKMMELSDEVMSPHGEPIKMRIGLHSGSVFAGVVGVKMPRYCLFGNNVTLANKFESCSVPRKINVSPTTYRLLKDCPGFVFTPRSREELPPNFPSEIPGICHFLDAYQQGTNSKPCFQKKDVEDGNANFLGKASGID
# Sequence (Q02153 1-619): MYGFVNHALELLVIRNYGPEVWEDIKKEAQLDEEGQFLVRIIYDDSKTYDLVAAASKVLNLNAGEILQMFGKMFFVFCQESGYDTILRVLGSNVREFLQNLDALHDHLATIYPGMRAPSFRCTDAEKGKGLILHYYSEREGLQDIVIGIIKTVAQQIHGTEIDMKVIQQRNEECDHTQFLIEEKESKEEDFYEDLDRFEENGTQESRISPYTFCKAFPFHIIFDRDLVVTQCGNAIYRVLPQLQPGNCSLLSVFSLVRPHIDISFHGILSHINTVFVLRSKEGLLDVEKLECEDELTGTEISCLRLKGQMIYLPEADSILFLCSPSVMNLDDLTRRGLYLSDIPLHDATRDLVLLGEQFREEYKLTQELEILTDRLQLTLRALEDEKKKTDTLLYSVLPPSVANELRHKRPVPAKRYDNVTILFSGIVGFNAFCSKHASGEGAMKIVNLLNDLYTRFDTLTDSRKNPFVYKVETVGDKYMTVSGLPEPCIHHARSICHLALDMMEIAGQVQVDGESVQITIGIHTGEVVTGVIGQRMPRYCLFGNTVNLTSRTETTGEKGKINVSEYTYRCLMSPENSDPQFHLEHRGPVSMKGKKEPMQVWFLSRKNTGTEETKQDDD
# protocol.details: Cell-Based sGC Functional Assay (CASA Assay)
# particulars: CHO-K1/sGC cells, intracellular cGMP by HTRF, 1 hr at 37° C.; IP from 4P fit; presence or absence of 1 μM DETA-NO not given
Remember the convention: pEC50 equals -log10 of concentration in molar.

Q. // lookup pEC50 for [2H]C([2H])([2H])n1ncc2c(-c3nc(N)c4c(n3)NC(=O)C4(C)c3ccc(-c4cnn(C)c4)cc3)nc(CCC(F)(F)C(F)(F)F)nc21 (single isomer, unassigned)
A. 7.05

Q. And for [2H]C([2H])([2H])n1ncc2c(-c3nc(N)c4c(n3)NC(=O)C4(C)c3ccc(C#N)cc3)nc(CCC(F)(F)C(F)(F)F)nc21 (single isomer, unassigned) ?
A. 7.52

Q. And for C#CC1(CC)C(=O)Nc2nc(-c3nc(CCC(F)(F)C(F)(F)F)nc4c3cnn4C)nc(N)c21 (single isomer, unassigned) ?
A. 7.31

Q. And for CC(C)NC1(C)C(=O)Nc2nc(-c3nc(CCC(F)(F)C(F)(F)F)nc4c3cnn4C)nc(N)c21 (stereo not drawn) ?
A. 6.92

Q. And for [2H]C([2H])([2H])n1ncc2c(-c3nc(N)c4c(n3)NC(=O)C4(C)c3cccc(O)c3)nc(CCC(F)(F)C(F)(F)F)nc21 (stereo not drawn) ?
A. 6.95

Q. And for [2H]C([2H])([2H])n1ncc2c(-c3nc(N)c4c(n3)NC(=O)C4(C)c3cccc(OC)c3)nc(CCC(F)(F)C(F)(F)F)nc21 (single isomer, unassigned) ?
A. 7.68
